target: Serine/threonine-protein kinase DCLK2 (Homo sapiens); conditions: at 1 µM;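 further: each value is a mean percent inhibition of DCLK2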
Readings of inhibition for the listed compounds
assay readout: inhibition (%)

molecule smiles	assay readout	unit name	quantitative readout
COc1ccc(Nc2ncc(-c3ccccc3)o2)cc1OC	inhibition	%	5.3
CC1(C)CC(n2cnc(-c3ccc(F)cc3)c2-c2ccnc(N)n2)CC(C)(C)N1	inhibition	%	-7.74
Cc1cc(O)cc(C)c1/C=C/c1cncc(C(=O)OC(C)(C)C)c1	inhibition	%	6.15
CNC(=O)c1sc(-n2cnc3cc(OC)c(OC)cc32)cc1OCc1ccccc1C(F)(F)F	inhibition	%	2.29
COc1cc(N2CCN(C(C)C)CC2)ccc1Nc1nc(Nc2cccc3ncccc23)c2cc[nH]c2n1	inhibition	%	-0.27
CCOc1ccc2c(-c3ccnc(Nc4cc(OC)cc(C(F)(F)F)c4)n3)cnn2n1	inhibition	%	4.41
